experimental_system: human Factor IXa (human, UniProt P00740 47-191; P00740 227-461)
experimental_protocol: cell-based or functional assay
Square brackets hold non-standard residues; d marks the D form. Primed or numbered codes have the meaning given here. Ends that are not written are not given here. Pra = C#CC[C@H](N)C(=O)O; PEG4′ = PEG4 spacer
attribute_measured: EC50 [µM], FXa generation assay

* [Pra][PEG4′]PRI[dR]TVGPGS[dR]SASGKSTCLASYCWLFWTGIA (not fully specified (C-terminus); printed as Pra-PEG4-PRIrTVGPGSrSASGKSTCLASYCWLFWTGIA; cysteine pairing not given here) [Pra-PEG4-PRIrTVGPGSrSASGKSTCLASYCWLFWTGIA] | > 1 µM

Q. For the binder shown here, RRAPGKLQCLASYCWLF , give the reported EC50 [µM], FXa generation assay.
A. > 5 µM
